Target: recombinant human ALK5 (TGF-βR1) protein (Homo sapiens, UniProt P36897)
Construct: purchased Life Technologies PR9075A
Sequence (P36897 34-503): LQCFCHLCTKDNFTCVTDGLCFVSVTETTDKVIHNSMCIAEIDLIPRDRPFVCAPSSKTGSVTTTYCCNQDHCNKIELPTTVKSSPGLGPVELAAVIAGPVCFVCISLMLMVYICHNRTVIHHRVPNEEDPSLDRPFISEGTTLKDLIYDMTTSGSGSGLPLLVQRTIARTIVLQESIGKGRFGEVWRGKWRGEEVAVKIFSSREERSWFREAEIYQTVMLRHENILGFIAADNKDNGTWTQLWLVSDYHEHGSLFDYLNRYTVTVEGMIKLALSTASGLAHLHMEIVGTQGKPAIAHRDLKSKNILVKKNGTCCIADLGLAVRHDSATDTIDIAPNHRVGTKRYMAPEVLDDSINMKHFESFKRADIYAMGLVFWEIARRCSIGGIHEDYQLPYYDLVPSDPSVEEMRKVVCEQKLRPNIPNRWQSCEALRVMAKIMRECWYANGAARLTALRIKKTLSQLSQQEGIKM
Experiment: Biochemical ALK5 (TGF-βR1) assay to measure pKi (LANCE Ultra ULight kinase assay)
Settings: apparent pKi from pIC50 by Cheng-Prusoff, read-out: ALK5 pKi (converted)
Overview of recorded Ki for various molecules

Worked examples, 2 molecules total:
[[record]]
molecule = "Cc1cccc(-c2[nH]cnc2-c2ccc3ncc(C4=CCC(NC(=O)CSC5CCOC5=O)CC4)cc3c2)n1 (stereo not shown) [Compound 98]"
assayed_target = "recombinant human ALK5 (TGF-βR1) protein (Homo sapiens, UniProt P36897)"
experimental_value = "0.0398 to 0.316 nM"

[[record]]
molecule = "Cc1cccc(-c2[nH]nnc2-c2ccc3ncc(N4CCNCC4)cc3c2)n1 [Compound 409]"
assayed_target = "recombinant human ALK5 (TGF-βR1) protein (Homo sapiens, UniProt P36897)"
experimental_value = "0.0398 to 0.316 nM"


Read off the recorded Ki for Cc1cccc(-c2n[nH]cc2-c2ccc3ncc(-c4c(C)n[nH]c4C)cc3n2)n1 [Compound 366]
0.0398 to 0.316 nM

Read off the recorded Ki for Cc1cccc(-c2[nH]cnc2-c2ccc3ncc(N4CCC5(CCNCC5)C4)cc3c2)n1 [Compound 160]
< 0.0316 nM

Read off the recorded Ki for Cc1cccc(-c2n[nH]cc2-c2ccc3ncc(CNC(C(=O)OC4CCCC4)c4ccccc4)cc3n2)n1 (stereo not shown) [Compound 684]
3.98 to 31.6 nM

Read off the recorded Ki for Cc1cccc(-c2[nH]cnc2-c2ccc3ncc(N4CC5(CCCNC5)C4)cc3c2)n1 [Compound 159]
< 0.0316 nM

Read off the recorded Ki for Cc1nc(-c2[nH]cnc2-c2ccc3ncc(-c4cn[nH]c4)cc3n2)ccc1F [Compound 536]
< 0.0316 nM

Read off the recorded Ki for Cc1cccc(-c2[nH]ncc2-c2ccc3ncc(C(=O)OCCC4CCNC4)cc3c2)n1 (stereo not shown) [Compound 1164]
0.0398 to 0.316 nM

Read off the recorded Ki for Cc1cccc(-c2[nH]cnc2-c2ccc3ncc(Nc4ccc(N5CCN(C(C)C)CC5)cn4)cc3n2)n1 [Compound 695]
0.0398 to 0.316 nM

Read off the recorded Ki for Cc1cccc(-c2[nH]cnc2-c2ccc3ncc(NCCN4CC5(CCCNC5)C4)cc3c2)n1 [Compound 733]
0.0398 to 0.316 nM

Read off the recorded Ki for Cc1cccc(-c2[nH]cnc2-c2ccc3ncc(-c4cnc(C(=O)O[C@H]5CCNC5)nc4)cc3c2)n1 [Compound 1072]
0.0398 to 0.316 nM

Read off the recorded Ki for Cc1cccc(-c2[nH]cnc2-c2ccc3ncc(Nc4cnn(C5CNC5)c4)cc3c2)n1 [Compound 227]
0.0398 to 0.316 nM
